Molecular target: UniProtKB P08173
Sequence (P08173 whole entry): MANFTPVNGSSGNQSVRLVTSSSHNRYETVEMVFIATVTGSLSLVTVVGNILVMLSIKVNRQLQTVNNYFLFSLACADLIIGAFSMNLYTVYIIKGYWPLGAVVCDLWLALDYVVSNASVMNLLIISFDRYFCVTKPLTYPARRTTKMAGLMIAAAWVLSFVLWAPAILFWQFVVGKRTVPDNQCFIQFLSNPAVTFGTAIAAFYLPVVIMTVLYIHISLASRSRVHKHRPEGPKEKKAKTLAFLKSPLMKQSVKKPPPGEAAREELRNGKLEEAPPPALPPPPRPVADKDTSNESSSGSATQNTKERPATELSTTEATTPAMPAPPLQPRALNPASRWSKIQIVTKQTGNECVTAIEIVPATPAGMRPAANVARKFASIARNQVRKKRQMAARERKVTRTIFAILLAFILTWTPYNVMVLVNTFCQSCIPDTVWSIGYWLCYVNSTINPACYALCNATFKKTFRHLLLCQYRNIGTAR
Experiment: Radioligand (tritiated N-methylscopolamine) binding assay, M4
Details: Ki against the M4 receptor; membranes from CHO cells expressing human M4; tritiated N-methylscopolamine 1.5 nM; read-out: Ki
Some compounds, each annotated with its measured Ki.

Check out these entries, answers already filled in.
COc1cccc(CN2CCC(CCNC(=O)N3[C@H](C)CN(c4ncc(C#N)cn4)C[C@@H]3C)CC2)c1 [6-59] ... 10 to 100 nM
COc1cc(C#N)cc(N2CCN(C(=O)NCCC3CCN(Cc4ccccc4)CC3)[C@H](C)C2)c1 [4-39] ... 10 to 100 nM
O=C(NCCC1CCN(Cc2ccccc2)CC1)N1CCC(c2ccccc2F)CC1 [8-32] ... 100 to 1000 nM
C[C@@H]1CN(c2cc(F)c(F)c(F)c2)CCN1C(=O)NCCN1CCN(Cc2ccccc2)CC1 [7-6] ... 100 to 1000 nM
Cc1cc(Cl)c(-c2cc(C(=O)NCC[C@@H]3CCN(Cc4ccccc4)C3)ccc2Cl)cn1 [9-20] ... 100 to 1000 nM
Cc1c(C(=O)NCCC2CCN(Cc3cccc4c3OCCO4)CC2)cnc2cc(-c3ccccc3)nn12 [19-2] ... 10 to 100 nM

Lookup: # query: Ki | item O=C(NCCC1CCN(Cc2ccccc2)CC1)N1CCN(c2cnc(C(F)(F)F)cn2)CC1 [22-25] | system: UniProtKB P08173
Found: < 10 nM

Lookup: # query: Ki | item C[C@@H]1CN(c2cc(F)c(F)c(F)c2)CCN1C(=O)NCCC1CCN(Cc2c(F)cccc2F)CC1 [6-28] | system: UniProtKB P08173
Found: 100 to 1000 nM

----------
Target: UniProt P08173
Test: Radioligand (tritiated N-methylscopolamine) binding assay, M4
Settings: Ki against the M4 receptor; membranes from CHO cells expressing human M4; tritiated N-methylscopolamine 1.5 nM; read-out: Ki
pKi: −log10 of the molar value.
property: pKi

Check out these entries, answers already filled in.
C[C@@H]1CN(c2ncc(C(=O)NCC3CC3)cn2)C[C@H](C)N1C(=O)NCCC1CCN(Cc2ccccc2)CC1 ... 6.00 to 7.00
C[C@@H]1CN(c2ccc(F)c(C#N)c2)CCN1C(=O)N(C)CCC1CCN(Cc2ccccc2)CC1 ... 6.00 to 7.00
C[C@@H]1CN(c2cnc(C(F)(F)F)cn2)C[C@H](C)N1C(=O)NCCC1CCN(Cc2ccccc2)CC1 ... > 8.00

Lookup: Which pKi reading was recorded for the molecule C[C@@H]1CN(c2cc(F)c(F)c(Cl)c2)CCN1C(=O)NCCC1CCN(Cc2ccccc2)CC1 ?
Found: > 8.00

Lookup: Which pKi reading was recorded for the molecule CN(C(=O)NCCC1CCN(Cc2ccccc2)CC1)C1CCN(c2ccc(Br)cn2)C1 (centres unmarked) ?
Found: 7.00 to 8.00

Lookup: Which pKi reading was recorded for the molecule O=C(NCCC1CCN(Cc2ccccc2)CC1)N1CCN(c2ncccn2)CC1 ?
Found: 6.00 to 7.00

Lookup: Which pKi reading was recorded for the molecule C[C@@H]1CN(c2cc(F)c(F)c(F)c2)CCN1C(=O)NCCC1CCN(Cc2ccccc2OC(F)(F)F)CC1 ?
Found: 6.00 to 7.00

Lookup: Which pKi reading was recorded for the molecule C[C@@H]1CN(c2ncc(C#N)cn2)C[C@H](C)N1C(=O)NCCC1CCN(Cc2cccnc2)CC1 ?
Found: 6.00 to 7.00

----------
Biological target: human M5 receptor (Homo sapiens (Human), UniProt P08912)
Sequence (P08912 whole entry): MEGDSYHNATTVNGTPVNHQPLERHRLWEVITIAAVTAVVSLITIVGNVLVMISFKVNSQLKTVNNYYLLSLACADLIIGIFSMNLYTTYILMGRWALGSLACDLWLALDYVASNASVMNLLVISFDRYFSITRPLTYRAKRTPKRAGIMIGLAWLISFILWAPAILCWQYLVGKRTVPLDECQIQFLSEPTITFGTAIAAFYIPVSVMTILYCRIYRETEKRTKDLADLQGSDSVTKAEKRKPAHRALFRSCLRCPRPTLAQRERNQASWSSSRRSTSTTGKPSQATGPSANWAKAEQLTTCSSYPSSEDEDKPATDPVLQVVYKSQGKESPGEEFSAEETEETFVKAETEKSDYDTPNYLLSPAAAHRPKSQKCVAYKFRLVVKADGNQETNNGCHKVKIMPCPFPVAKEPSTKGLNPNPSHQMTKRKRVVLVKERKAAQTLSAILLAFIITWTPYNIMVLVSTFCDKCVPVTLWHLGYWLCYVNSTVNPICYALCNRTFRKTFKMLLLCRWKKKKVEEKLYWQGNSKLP
Assay: Radioligand (tritiated N-methylscopolamine) binding assay, M5
Details: CHO cell membranes expressing human M5; 1.5 nM tritiated N-methylscopolamine; 90 min, 37° C.; read-out: Ki against M5 receptor (Table 21, M5)
property: Ki

Check out these entries, answers already filled in.
CNc1nc(N2CCN(C(=O)NCCC3CCN(Cc4ccccc4)CC3)[C@H](C)C2)ncc1C#N ... > 1000 nM
N#Cc1cnc(N2CC3CCC(C2)N3C(=O)NCCC2CCN(Cc3ccccc3)CC2)nc1 ... 100 to 1000 nM
C[C@@H]1CN(c2cc(F)c(C#N)c(F)c2)CCN1C(=O)NCCC1CCN(Cc2ccccc2)CC1 ... 100 to 1000 nM
C[C@@H]1CN(c2ncc(C#N)cn2)C[C@H](C)N1C(=O)NCCC1CCN(Cc2ccccc2)CC1 [21-15] ... > 1000 nM
C[C@@H]1CN(c2ncc(C#N)cn2)C[C@H](C)N1C(=O)NCCC1CCN(Cc2ccccc2)CC1 [5-20] ... > 1000 nM

Lookup: # query: Ki | item C[C@@H]1CN(c2ncc(C(F)(F)F)cn2)CCN1C(=O)NCCC1CCN(Cc2cccc(F)c2)CC1 | system: human M5 receptor (Homo sapiens (Human), UniProt P08912)
Found: > 1000 nM

Lookup: # query: Ki | item C[C@@H]1CN(c2ncc(Cl)c(N)n2)CCN1C(=O)NCCC1CCN(Cc2ccccc2)CC1 | system: human M5 receptor (Homo sapiens (Human), UniProt P08912)
Found: > 1000 nM

Lookup: # query: Ki | item O=C(NCCC1CCN(Cc2ccccc2)CC1CO)N1CCN(c2cc(F)c(F)c(F)c2)CC1 (stereo not shown) | system: human M5 receptor (Homo sapiens (Human), UniProt P08912)
Found: > 1000 nM

----------
Some compounds, each annotated with its measured Ki.
Biological target: human M2 receptor (Homo sapiens (Human))
Sequence (P08172 whole entry): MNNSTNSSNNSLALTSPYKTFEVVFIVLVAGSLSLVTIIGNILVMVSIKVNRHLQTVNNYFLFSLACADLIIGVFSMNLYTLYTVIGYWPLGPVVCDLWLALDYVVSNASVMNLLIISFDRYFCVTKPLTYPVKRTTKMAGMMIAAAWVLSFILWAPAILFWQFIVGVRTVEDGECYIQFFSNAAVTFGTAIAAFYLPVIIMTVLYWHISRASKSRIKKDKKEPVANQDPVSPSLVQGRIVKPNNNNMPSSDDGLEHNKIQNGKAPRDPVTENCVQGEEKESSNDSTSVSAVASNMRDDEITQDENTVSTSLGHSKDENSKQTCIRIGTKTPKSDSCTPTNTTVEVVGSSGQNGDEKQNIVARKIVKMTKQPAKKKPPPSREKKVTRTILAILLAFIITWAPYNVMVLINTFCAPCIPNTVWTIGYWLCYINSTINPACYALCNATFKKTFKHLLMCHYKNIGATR
Test: Radioligand (tritiated N-methylscopolamine) binding assay, M2
Conditions: CHO cell membranes expressing human M2; 1.5 nM tritiated N-methylscopolamine; 90 min, 37° C.; read-out: Ki against M2 receptor (Table 21, M2)

C[C@@H]1CN(c2ccc(C(F)(F)F)cc2F)CCN1C(=O)NCCC1CCN(Cc2ccccc2)CC1 ... 10 to 100 nM
CC1CN(c2cccc(OC(F)(F)F)c2)CCC1C(=O)NCCC1CCN(Cc2ccccc2)CC1 (centres unmarked) ... 100 to 1000 nM
C[C@H]1CN(c2ccc(OC(F)(F)F)c(F)c2)CCN1C(=O)NCCC1CCN(Cc2ccccc2)CC1 ... 10 to 100 nM
C[C@@H]1CN(c2cccc(C#N)c2)CCN1C(=O)NCCC1CCN(Cc2ccccc2)CC1 ... 100 to 1000 nM
C[C@@H]1CN(c2ncc(C#N)cn2)C[C@@H](C)N1C(=O)NCCC1CCN(Cc2ccccc2)CC1 ... 100 to 1000 nM
O=C(NCCC1CCN(Cc2ccccc2)CC1)N1CCN(c2ncc(C(F)(F)F)cn2)CC1 ... 10 to 100 nM
C[C@H]1CN(c2ccc(C(F)(F)F)cn2)CCC1C(=O)NCCC1CCN(Cc2ccccc2)CC1 (some centres unmarked) ... 10 to 100 nM
C[C@@H]1CN(c2cnc(Cl)c(F)c2)C[C@H](C)N1C(=O)NCCC1CCN(Cc2ccccc2)CC1 ... 10 to 100 nM
O=C(NCCC1CCN(Cc2ccccc2)CC1)C1CCN(c2cc(F)c(F)c(F)c2)CC1 [10-7] ... 100 to 1000 nM
Nc1nc(N2CCN(C(=O)NCCC3CCN(Cc4ccccc4)CC3)CC2)ncc1C(F)(F)F ... 100 to 1000 nM

Lookup: Which Ki reading was recorded for the compound Cc1c(C(=O)NC[C@@H](O)C2CCN(Cc3ccccc3)CC2)cnc2cc(-c3cccc(C(F)(F)F)c3)nn12 ?
Found: 10 to 100 nM

Lookup: Which Ki reading was recorded for the compound COc1cc(C#N)cc(N2CCC(C(=O)NCCC3CCN(Cc4ccccc4)CC3)CC2)c1 ?
Found: 10 to 100 nM

Lookup: Which Ki reading was recorded for the compound C[C@@H]1CN(c2ncc(Br)cn2)CCN1C(=O)NCCC1CCN(Cc2ccccc2)CC1 ?
Found: < 10 nM

----------
Biological target: UniProt:P08173
Test: Radioligand (tritiated N-methylscopolamine) binding assay, M4
Conditions: Ki against the M4 receptor; membranes from CHO cells expressing human M4; tritiated N-methylscopolamine 1.5 nM; read-out: Ki
Some compounds, each annotated with its measured Ki.

Check out these entries, answers already filled in.
C[C@@H]1CN(c2ncc(C#N)cn2)C[C@H](C)N1C(=O)NCCC1CCN(Cc2ccc3[nH]ccc3c2)CC1 [6-47] ... < 10 nM
N#Cc1cc(F)cc(N2CCC(C(=O)NCCC3CCN(Cc4ccccc4)CC3)CC2)c1 [10-14] ... < 10 nM
Cc1cc(Cl)c(-c2cc(C(=O)NCCC3CCN(Cc4ccccc4)CC3)ccc2Cl)cn1 [9-67] ... 100 to 1000 nM
C[C@@H]1CN(c2cccc(F)c2F)CCN1C(=O)NCCC1CCN(Cc2ccccc2)CC1 [4-37] ... 10 to 100 nM
O=C(NCCC1CCN(Cc2ccccc2)CC1)c1ccc(SC(F)(F)F)cc1 [9-56] ... 100 to 1000 nM

Lookup: # query: Ki | item C=CCNC(=O)c1cnc(N2C[C@@H](C)N(C(=O)NCCC3CCN(Cc4ccccc4)CC3)[C@@H](C)C2)nc1 [27-4] | system: UniProt:P08173
Found: 100 to 1000 nM

Lookup: # query: Ki | item N#Cc1cc(N2CCC(O)(C(=O)NCCC3CCN(Cc4ccccc4)CC3)CC2)ccc1F [10-51] | system: UniProt:P08173
Found: 100 to 1000 nM

Lookup: # query: Ki | item CN(C(=O)NCCC1CCN(Cc2ccccc2)CC1)C1CCN(c2ccc(C(F)(F)F)cc2)C1 (centres unmarked) [8-21] | system: UniProt:P08173
Found: 100 to 1000 nM

These data points were gathered from patent US11033539B2.
